System: 935938-334-R-J1-PDC complex spheroid viability;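 further: spheroids exposed to drugs for seven days before viability read; 100% = DMSO vehicle control wells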
Assay: Anticancer human tumor 935938-334-R-J1-PDC patient-derived small intestine adenocarcinoma cell line growth inhibition [POLQ]
Settings: second compound 1 µM; first compound 0.1 µM; active compounds read low
parameter: viability, T/C (%)
# number only, unit % dropped from output

Study these solved cases before continuing.
molecule	target_system	measurement_unit	viability, T/C
CCc1cc2c(N3CCc4c(cc(Cn5ccnc5)cc4-c4cn(C)nc4C(F)(F)F)C3=O)ccnc2c(OC)n1 + COC1C(OC(N)=O)C(O)C(Oc2ccc3c(O)c(NC(=O)c4ccc(O)c(CC=C(C)C)c4)c(=O)oc3c2C)OC1(C)C	935938-334-R-J1-PDC complex spheroid viability	%	81.9
COc1cccc2c1C(=O)c1c(O)c3c(c(O)c1C2=O)CC(O)(C(=O)CO)CC3OC1CC(N)C(O)C(C)O1 (stereo not given) + Nc1ccc(C#CCN(C(=O)Cc2ncc(C(F)(F)F)cc2C(F)(F)F)c2ccc(F)cc2)nn1	935938-334-R-J1-PDC complex spheroid viability	%	38.8
CCc1cc2c(N3CCc4c(cc(Cn5ccnc5)cc4-c4cn(C)nc4C(F)(F)F)C3=O)ccnc2c(OC)n1 + Cc1cccc(N(C)C(=O)C2C(O)CCN2c2nc(C)cc(C(F)(F)F)c2C#N)c1	935938-334-R-J1-PDC complex spheroid viability	%	54.9

What value of viability, T/C has been recorded for this entry: C=CC(=O)N1CCN(c2nc(=O)n(-c3c(C)ccnc3C(C)C)c3nc(-c4c(O)cccc4F)c(F)cc23)C(C)C1 (stereo not given) + Nc1ccc(C#CCN(C(=O)Cc2ncc(C(F)(F)F)cc2C(F)(F)F)c2ccc(F)cc2)nn1
96.9

What value of viability, T/C has been recorded for this entry: O=c1[nH]cc(F)c(=O)[nH]1 + COC1C(OC(N)=O)C(O)C(Oc2ccc3c(O)c(NC(=O)c4ccc(O)c(CC=C(C)C)c4)c(=O)oc3c2C)OC1(C)C
96.4
